Here, each record is paired with measured Kb data.
System: human H4 receptor (Homo sapiens)
Construct: expressed in transfected cells; host or cells: HEKf cells transduced with baculovirus
Sequence (Q9H3N8 whole entry): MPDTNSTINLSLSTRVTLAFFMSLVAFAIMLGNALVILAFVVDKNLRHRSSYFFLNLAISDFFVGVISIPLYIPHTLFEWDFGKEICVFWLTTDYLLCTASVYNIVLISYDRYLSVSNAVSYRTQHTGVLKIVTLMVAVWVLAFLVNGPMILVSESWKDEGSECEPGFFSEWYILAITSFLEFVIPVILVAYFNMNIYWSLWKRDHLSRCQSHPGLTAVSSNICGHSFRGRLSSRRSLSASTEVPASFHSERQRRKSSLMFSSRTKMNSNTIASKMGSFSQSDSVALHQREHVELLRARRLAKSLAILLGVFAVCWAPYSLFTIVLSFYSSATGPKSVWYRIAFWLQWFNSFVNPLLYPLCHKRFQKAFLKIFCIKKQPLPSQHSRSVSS
Assay Name: H4 Antagonist Functional cAMP Gi Assay
Type: cell-based
Protocol Conditions: H4 antagonist activity, read-out: Human H4 CAMP fpKb (converted)
Counter-ions that a name gives are not always drawn.
Measured Metric: Kb (nM)

>>> print(df.to_string())
                                    compound  measured
 0  CCOC(=O)N1CCCC(n2cc(-c3cc(N4CC[C@@H](NC)C4)nc(N)n3)cn2)C1 (stereo partly shown)       794
 1  CN[C@@H]1CCN(c2cc(-c3cnn(CCC#N)c3)nc(N)n2)C1       794
 2  CN[C@@H]1CCN(c2cc(-c3[nH]nc(C)c3C)nc(N)n2)C1 [Example 7-1, dihydrochloride]      6.31
 3  CN[C@@H]1CCN(c2cc(-c3c(C)n[nH]c3C)nc(N)n2)C1      50.1
 4  CN[C@@H]1CCN(c2cc(-c3ccnn3C)nc(N)n2)C1 [Example 1-2, dihydrochloride]       794
 5  CN[C@@H]1CCN(c2cc(-c3ccn(C)n3)nc(N)n2)C1      39.8
 6  CN[C@@H]1CCN(c2cc(-c3cnn(CC(F)(F)F)c3)nc(N)n2)C1 [Example 8-8, dihydrochloride]       398
 7  CN[C@@H]1CCN(c2cc(-c3[nH]ncc3F)nc(N)n2)C1 [Example 16-10, ditrifluoroacetate]      12.6
 8  CN[C@@H]1CCN(c2cc(-c3cc(C(F)(F)F)n[nH]3)nc(N)n2)C1 [Example 3-4, ditrifluoroacetate salt]      63.1
 9  CN[C@@H]1CCN(c2cc(-c3nn(C)cc3C)nc(N)n2)C1        20
10  CNC1(C)CN(c2cc(-c3[nH]ncc3C)nc(N)n2)C1 [Example 16-5, ditrifluoroacetate]        20
11  CN[C@@H]1CCN(c2cc(-c3ccn[nH]3)nc(N)n2)C1      50.1
12  Cc1cn[nH]c1-c1cc(N2CC(N)C2)nc(N)n1 [Example 16-4, ditrifluoroacetate]       398
13  Nc1nc(-c2cc(C(F)(F)F)n[nH]2)cc(N2CC[C@@H](N)C2)n1       100
14  CN[C@@H]1CCN(c2cc(-c3[nH]nc(Cl)c3C)nc(N)n2)C1 [Example 17-14, dihydrochloride]    0.0631
15  CN[C@@H]1CCN(c2cc(-c3cnn(C(F)(F)F)c3)nc(N)n2)C1 [Example 8-7, dihydrochloride]      3.16

====

Here, each record is paired with measured pIC50 data.
System: hERG (Homo sapiens, UniProt Q12809)
Sequence (Q12809 whole entry): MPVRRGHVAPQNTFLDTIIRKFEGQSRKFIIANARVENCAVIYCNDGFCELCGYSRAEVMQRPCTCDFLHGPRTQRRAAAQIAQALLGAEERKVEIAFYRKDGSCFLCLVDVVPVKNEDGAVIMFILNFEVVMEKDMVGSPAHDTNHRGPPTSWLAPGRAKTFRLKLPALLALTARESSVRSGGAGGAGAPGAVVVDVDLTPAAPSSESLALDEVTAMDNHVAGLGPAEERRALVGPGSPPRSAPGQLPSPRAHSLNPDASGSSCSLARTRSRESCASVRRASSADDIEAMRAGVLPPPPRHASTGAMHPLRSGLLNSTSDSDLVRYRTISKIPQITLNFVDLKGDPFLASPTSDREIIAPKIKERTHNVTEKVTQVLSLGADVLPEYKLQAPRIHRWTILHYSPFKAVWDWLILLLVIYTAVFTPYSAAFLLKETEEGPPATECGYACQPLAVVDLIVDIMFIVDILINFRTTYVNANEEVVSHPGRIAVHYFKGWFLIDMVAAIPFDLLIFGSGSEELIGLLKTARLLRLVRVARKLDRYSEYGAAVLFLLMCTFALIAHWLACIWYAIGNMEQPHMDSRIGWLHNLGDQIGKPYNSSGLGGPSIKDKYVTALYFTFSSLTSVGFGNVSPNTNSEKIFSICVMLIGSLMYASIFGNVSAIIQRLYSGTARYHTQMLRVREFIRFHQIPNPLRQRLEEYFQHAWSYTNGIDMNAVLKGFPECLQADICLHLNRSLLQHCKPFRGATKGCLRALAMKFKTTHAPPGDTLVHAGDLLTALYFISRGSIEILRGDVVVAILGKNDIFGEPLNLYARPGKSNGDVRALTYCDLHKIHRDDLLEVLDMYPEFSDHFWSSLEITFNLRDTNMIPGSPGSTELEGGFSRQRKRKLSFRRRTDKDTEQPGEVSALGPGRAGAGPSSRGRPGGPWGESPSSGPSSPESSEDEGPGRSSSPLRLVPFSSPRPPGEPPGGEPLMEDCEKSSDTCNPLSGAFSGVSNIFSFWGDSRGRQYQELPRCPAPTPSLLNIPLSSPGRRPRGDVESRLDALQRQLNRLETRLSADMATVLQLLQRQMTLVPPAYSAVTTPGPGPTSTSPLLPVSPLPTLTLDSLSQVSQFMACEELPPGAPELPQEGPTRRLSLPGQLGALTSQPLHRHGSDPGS
Assay Name: hERG Assay (QPatch automated patch clamp; single-concentration assay at 30 μM and pIC50 assay)
pIC50: −log10 of the molar value. Counter-ions that a name gives are not always drawn.
Measured Metric: pIC50

In [3]: df
Out[3]:
                                    compound                               system  measured_metric  measured
 0   CNC1CN(c2cc(-c3[nH]nc(C)c3Cl)nc(N)n2)C1  hERG (Homo sapiens, UniProt Q12809)            pIC50      4.60
 1  CN[C@@H]1CCN(c2cc(-c3cn[nH]c3C)nc(N)n2)C1  hERG (Homo sapiens, UniProt Q12809)            pIC50    ≤ 4.00
 2  CN[C@@H]1CCN(c2cc(-c3cn[nH]c3)nc(N)n2)C1  hERG (Homo sapiens, UniProt Q12809)            pIC50    ≤ 4.00
 3  CN[C@@H]1CCN(c2cc(-c3cn(C)nc3C)nc(N)n2)C1  hERG (Homo sapiens, UniProt Q12809)            pIC50    ≤ 4.00
 4  CNC1CN(c2cc(-c3cnn(C(F)(F)F)c3)nc(N)n2)C1 [Example 8-16, ditrifluoroacetate]  hERG (Homo sapiens, UniProt Q12809)            pIC50    < 4.00
 5  CN[C@@H]1CCN(c2cc(-c3ccn(C)n3)nc(N)n2)C1  hERG (Homo sapiens, UniProt Q12809)            pIC50    ≤ 4.00
 6  CN[C@@H]1CCN(c2cc(-c3[nH]ncc3C)nc(N)n2)C1  hERG (Homo sapiens, UniProt Q12809)            pIC50    ≤ 4.00
 7  CN[C@@H]1CCN(c2cc(-c3cnn(C)c3C)nc(N)n2)C1  hERG (Homo sapiens, UniProt Q12809)            pIC50    ≤ 4.00
 8  Cc1cn[nH]c1-c1cc(N2C[C@H]3CCCN[C@H]3C2)nc(N)n1 [Example 16-7, ditrifluoroacetate]  hERG (Homo sapiens, UniProt Q12809)            pIC50    ≤ 4.00
 9  CN[C@@H]1CCN(c2cc(-c3cnn(C(F)F)c3)nc(N)n2)C1  hERG (Homo sapiens, UniProt Q12809)            pIC50      5.20
10  CN[C@@H]1CCN(c2cc(-c3cnn(CCOC)c3)nc(N)n2)C1  hERG (Homo sapiens, UniProt Q12809)            pIC50    ≤ 4.00
11  Nc1nc(-c2cnn(C(F)(F)F)c2)cc(N2CC[C@@H](N)C2)n1 [Example 8-15, dihydrochloride]  hERG (Homo sapiens, UniProt Q12809)            pIC50    ≤ 4.00
12    CNC1CN(c2cc(-c3[nH]nc(C)c3C)nc(N)n2)C1  hERG (Homo sapiens, UniProt Q12809)            pIC50    ≤ 4.50
13  CN[C@@H]1CCN(c2cc(-c3ccn[nH]3)nc(N)n2)C1  hERG (Homo sapiens, UniProt Q12809)            pIC50    ≤ 4.00

====

System: hERG (Homo sapiens, UniProt Q12809)
Assay Name: hERG Assay (QPatch automated patch clamp; single-concentration assay at 30 μM and pIC50 assay)
Protocol Conditions: human, CHO cells stably expressing hERG
Structures can show the parent of a compound that is named as a salt.
Measured Metric: IC50 (µM)

>>> print(df.to_string())
                                   compound  measured
0  CN[C@@H]1CCN(c2cc(-c3cnn(C(F)(F)F)c3)nc(N)n2)C1 [Example 8-7, dihydrochloride]      31.6

====

Here, each record is paired with measured inhibition at 30 µM data.
System: hERG (Homo sapiens, UniProt Q12809)
Assay Name: hERG Assay (QPatch automated patch clamp; single-concentration assay at 30 μM and pIC50 assay)
Protocol Conditions: human, CHO cells stably expressing hERG
Structures can show the parent of a compound that is named as a salt.
Measured Metric: inhibition at 30 µM (%)

>>> df
                                   compound  measured
0  CCc1nn(C)cc1-c1cc(N2CC[C@@H](NC)C2)nc(N)n1 [Example 11-2, dihydrochloride]        20
1  CN[C@@H]1CCN(c2cc(-c3ccn(C(F)F)n3)nc(N)n2)C1 [Example 2-2, dihydrochloride]        99
2  CNC1CN(c2cc(-c3cnn(C(F)(F)F)c3)nc(N)n2)C1 [Example 8-16, ditrifluoroacetate]        33
3  CN[C@@H]1CCN(c2cc(-c3[nH]nc(C)c3C)nc(N)n2)C1 [Example 7-1, dihydrochloride]        14
4  Nc1nc(-c2cc(C(F)(F)F)n[nH]2)cc(N2CC[C@@H](N)C2)n1        19
5  CN[C@@H]1CCN(c2cc(-c3cc(C4CC4)n[nH]3)nc(N)n2)C1 [Example 3-2, dihydrochloride]        39
6  CN[C@@H]1CCN(c2cc(-c3[nH]nc(Cl)c3C)nc(N)n2)C1 [Example 17-14, dihydrochloride]        44
7  CN[C@@H]1CCN(c2cc(-c3nn(C(F)F)cc3C)nc(N)n2)C1        94

====

System: hERG (Homo sapiens, UniProt Q12809)
Assay Name: in vitro
Structures can show the parent of a compound that is named as a salt.
Measured Metric: inhibition at 30 µM

In [3]: df
Out[3]:
                                   molecule      measured_metric  measured
0  Cc1n[nH]c(-c2cc(N3C[C@H]4CCCN[C@H]4C3)nc(N)n2)c1Cl [Example 17-7, dihydrochloride]  inhibition at 30 µM       38%

====

System: hERG (Homo sapiens)
Assay Name: hERG Assay (QPatch automated patch clamp; single-concentration assay at 30 μM and pIC50 assay)
Protocol Conditions: human, CHO cells stably expressing hERG
Counter-ions that a name gives are not always drawn.
Measured Metric: inhibition at 30 µM

>>> print(df.to_string())
                                   molecule  measured
0  CCc1cn[nH]c1-c1cc(N2CC[C@@H](NC)C2)nc(N)n1       25%
1  CCc1[nH]ncc1-c1cc(N2CC[C@@H](NC)C2)nc(N)n1       12%
2  CN[C@@H]1CCN(c2cc(-c3cn[nH]c3C(F)(F)F)nc(N)n2)C1       18%
3  CN[C@@H]1CCN(c2cc(-c3cnn(C(F)(F)F)c3)nc(N)n2)C1 [Example 8-7, dihydrochloride]       49%
4  CN[C@@H]1CCN(c2cc(-c3[nH]nc4c3CCC4)nc(N)n2)C1       16%
5  CN[C@H]1CCN(c2cc(-c3[nH]ncc3C)nc(N)n2)C1 [Example 16-1, ditrifluoroacetate]       32%
6  CN[C@@H]1CCN(c2cc(-c3[nH]ncc3F)nc(N)n2)C1 [Example 16-10, ditrifluoroacetate]       21%
7  CN[C@@H]1CCN(c2cc(-c3[nH]ncc3C)nc(N)n2)C1       14%
